tested-target: Ribosomal protein S6 kinase beta-1 (Homo sapiens, UniProt P23443)
Sequence (P23443 whole entry, looked up): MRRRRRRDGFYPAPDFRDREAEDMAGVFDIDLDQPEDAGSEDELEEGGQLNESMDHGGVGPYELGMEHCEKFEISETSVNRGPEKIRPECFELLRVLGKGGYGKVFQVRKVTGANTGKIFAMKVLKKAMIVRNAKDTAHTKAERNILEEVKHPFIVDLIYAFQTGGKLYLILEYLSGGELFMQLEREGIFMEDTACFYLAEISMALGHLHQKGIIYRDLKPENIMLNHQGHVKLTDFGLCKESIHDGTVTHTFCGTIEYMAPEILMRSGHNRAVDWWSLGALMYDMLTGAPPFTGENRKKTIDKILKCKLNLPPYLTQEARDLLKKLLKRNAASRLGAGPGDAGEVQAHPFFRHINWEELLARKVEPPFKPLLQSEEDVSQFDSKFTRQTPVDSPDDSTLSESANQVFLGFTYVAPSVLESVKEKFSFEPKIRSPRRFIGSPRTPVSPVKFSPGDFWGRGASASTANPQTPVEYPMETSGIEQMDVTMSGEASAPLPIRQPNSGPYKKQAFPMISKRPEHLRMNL
experimental-details: Inhibition of His-tagged human S6K1 expressed in Escherichia coli at 1 uM; values are per cent of control
Reported residual activity values for the following compounds.
Just the number in %, nothing appended.

Below are worked cases with known answers.
• Cn1cc(C2=C(c3cn(CCCN)c4ccccc34)C(=O)NC2=O)c2ccccc21 = 29
• COC[C@H]1OC(=O)c2coc3c2[C@@]1(C)C1=C(C3=O)[C@@H]2CCC(=O)[C@@]2(C)C[C@H]1OC(C)=O = 106
• NCCCn1cc(C2=C(c3c[nH]c4ccccc34)C(=O)NC2=O)c2ccccc21 = 18
• Cn1cc(C2=C(c3cn(CCCSC(=N)N)c4ccccc34)C(=O)NC2=O)c2ccccc21 [BISINDOLYLMALEIMIDE IX] = 6
• O=C1NC(=O)C(c2c[nH]c3ccccc23)=C1c1c[nH]c2ccccc12 = 87

Query: Return reported residual activity for target or system Ribosomal protein S6 kinase beta-1 (Homo sapiens, UniProt P23443), item Cn1cc(C2=C(c3c4n(c5ccccc35)CCC(CN)C4)C(=O)NC2=O)c2ccccc21 (configuration not stated) .
Result: 12

Query: Look up and report measured residual activity (Ribosomal protein S6 kinase beta-1 (Homo sapiens, UniProt P23443)) for the following compound: CN1C(=O)C(c2c[nH]c3ccccc23)=C(c2c[nH]c3ccccc23)C1=O
Result: 110
